- Test system: 993429-296-R-J1-PDC complex spheroid growth, percent test/control
- Assay Summary: Anticancer human tumor 993429-296-R-J1-PDC patient-derived uterine sarcoma cell line growth inhibition [Asc]
- Condition Description: second compound 0.1 µM; first compound 0.00949 µM; active compounds read low
Reported Metric: viability, T/C

- Cc1nc(N2CCC3(CC2)COC(C)C3N)c(CO)nc1Sc1ccnc(N)c1Cl (stereo not drawn) + CNC(C)C(=O)NC1CN(S(=O)(=O)c2cccc(S(=O)(=O)N3CCC4CCC(C(=O)NC(c5ccccc5)c5ccccc5)N4C(=O)C(NC(=O)C(C)NC)C3)c2)CCC2CCC(C(=O)NC(c3ccccc3)c3ccccc3)N2C1=O: 60.1%
- NC(=O)C(=Cn1cnc(-c2cc(C(F)(F)F)cc(C(F)(F)F)c2)n1)c1cncnc1 + Cc1c(S(C)(=O)=O)c(-c2cc(F)cc(N3CCN(c4ccc(NS(=O)(=O)c5ccc(NC(CCN6CCC(C(=O)OCCCP(=O)(O)O)CC6)CSc6ccccc6)c(S(=O)(=O)C(F)(F)F)c5)cc4)CC3)c2)c(-c2ccc(Cl)cc2)n1C(C)C: 50.8%

Continue with the next compound.
Memo: CCN1C(C(=O)NC23CCC(C(=O)O)(CC2)CC3)C(c2cccc(Cl)c2F)C2(C(=O)Nc3cc(Cl)ccc32)C12CCCCC2 (stereo not drawn) + Cc1c(S(C)(=O)=O)c(-c2cc(F)cc(N3CCN(c4ccc(NS(=O)(=O)c5ccc(NC(CCN6CCC(C(=O)OCCCP(=O)(O)O)CC6)CSc6ccccc6)c(S(=O)(=O)C(F)(F)F)c5)cc4)CC3)c2)c(-c2ccc(Cl)cc2)n1C(C)C , reported viability, T/C: 88.1%

====

- Tested on: 993429-296-R-J1-PDC complex spheroid growth, percent test/control
- Assay Summary: Anticancer human tumor 993429-296-R-J1-PDC cell line growth inhibition [Asc];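 also: spheroids exposed to compounds for seven days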
- Condition Description: second compound 0.1 µM; first compound 3.16 µM; active compounds read low
Reported Metric: viability, T/C (%)
Response body: numeric value in %, unit text excluded.

• C=C(F)C(=O)N1CCN(c2nc(OCC3CCCN3C)nc3c2CCN(c2cccc4cccc(Cl)c24)C3)CC1CC#N (stereo not drawn) + CNC(C)C(=O)NC1CN(S(=O)(=O)c2cccc(S(=O)(=O)N3CCC4CCC(C(=O)NC(c5ccccc5)c5ccccc5)N4C(=O)C(NC(=O)C(C)NC)C3)c2)CCC2CCC(C(=O)NC(c3ccccc3)c3ccccc3)N2C1=O = 7.4
• C=CC(=O)N1CCN(c2nc(=O)n(-c3c(C)ccnc3C(C)C)c3nc(-c4c(O)cccc4F)c(F)cc23)C(C)C1 (stereo not drawn) + CNC(C)C(=O)NC1CN(S(=O)(=O)c2cccc(S(=O)(=O)N3CCC4CCC(C(=O)NC(c5ccccc5)c5ccccc5)N4C(=O)C(NC(=O)C(C)NC)C3)c2)CCC2CCC(C(=O)NC(c3ccccc3)c3ccccc3)N2C1=O = 59.9

# evaluate next
Please fill in: viability, T/C reported for C#Cc1c(F)ccc2cc(O)cc(-c3ncc4c(N5CC6CCC(C5)N6)nc(OCC56CCCN5CC(F)C6)nc4c3F)c12 (stereo not drawn) + Cc1c(S(C)(=O)=O)c(-c2cc(F)cc(N3CCN(c4ccc(NS(=O)(=O)c5ccc(NC(CCN6CCC(C(=O)OCCCP(=O)(O)O)CC6)CSc6ccccc6)c(S(=O)(=O)C(F)(F)F)c5)cc4)CC3)c2)c(-c2ccc(Cl)cc2)n1C(C)C = 48.8

Hello, the source for this data is PubChem BioAssay AID1963446, in case you need it.
